# test_protocol: Comparative bioavailability study, curcumin in plasma by HPLC
# Format: in vivo, human
# measurement_setup: human, plasma, po, 1 gm, 1 gm curcuminoids oral; read-out: Cmax, Median
measure_name: Cmax (ng/mL)
Numbers only, in ng/mL.

Please supply the value of reported Cmax for the item COc1cc(C=CC(=O)CC(=O)C=Cc2ccc(O)c(OC)c2)ccc1O
10.3

* * *

# test_protocol: Comparative bioavailability study, curcumin in plasma by HPLC
# Format: in vivo, human
# measurement_setup: human, plasma, po, 1 gm, time 8 hr; 1 gm curcuminoids oral; read-out: Geometric Mean plasma concentration
measure_name: concentration at 8 hr
A complete answer gives the number and then names the unit.

Please supply the value of reported concentration at 8 hr for the item COc1cc(C=CC(=O)CC(=O)C=Cc2ccc(O)c(OC)c2)ccc1O [Curcumin]
6.56 ng/mL

* * *

# test_protocol: Comparative bioavailability study, curcumin in plasma by HPLC
# Format: in vivo, human
# measurement_setup: human, plasma, po, 1 gm, time 0 hr; 1 gm curcuminoids oral; read-out: Median plasma concentration
measure_name: concentration at 0 hr (ng/mL)
Give bare numbers, in ng/mL.

Please supply the value of reported concentration at 0 hr for the item COc1cc(C=CC(=O)CC(=O)C=Cc2ccc(O)c(OC)c2)ccc1O [Curcumin]
0

* * *

# test_protocol: Comparative bioavailability study, curcumin in plasma by HPLC
# Assay type: in vivo, human
# measurement_setup: human, plasma, po, 1 gm, time 6 hr; 1 gm curcuminoids oral; read-out: Max plasma concentration
measure_name: concentration at 6 hr (ng/mL)
Numbers only, in ng/mL.

Please supply the value of reported concentration at 6 hr for the item COc1cc(C=CC(=O)CC(=O)C=Cc2ccc(O)c(OC)c2)ccc1O [Curcumin]
4.87

* * *

# test_protocol: Comparative bioavailability study, curcumin in plasma by HPLC
# Format: in vivo, human
# measurement_setup: human, plasma, po, 1 gm, time 4 hr; 1 gm curcuminoids oral; read-out: Max plasma concentration
measure_name: concentration at 4 hr (ng/mL)
Answers are plain numbers, in ng/mL.

Please supply the value of reported concentration at 4 hr for the item COc1cc(C=CC(=O)CC(=O)C=Cc2ccc(O)c(OC)c2)ccc1O
15.6

* * *

# test_protocol: Comparative bioavailability study, curcumin in plasma by HPLC
# Format: in vivo, human
# measurement_setup: human, plasma, po, 1 gm, time 2 hr; 1 gm curcuminoids oral; read-out: Geometric Mean plasma concentration
measure_name: concentration at 2 hr (ng/mL)
Answers are plain numbers, in ng/mL.

Please supply the value of reported concentration at 2 hr for the item COc1cc(C=CC(=O)CC(=O)C=Cc2ccc(O)c(OC)c2)ccc1O
13.5
